assay-explanation: gradient 5% acetonitrile 3 min, to 50% in 2 min, to 85% in 15 min, held 3 min, 100 µL/min
applied-conditions: column: Zorbax Extend-C18 2.1 x 50 mm; eluents: water / acetonitrile, 0.1% formic acid
Class T: RP-LC retention time at least 900 s. Class F: RP-LC retention time below 900 s.

Worked examples, 3 compounds total:
>  <compound>
CCCc1nc(NCc2ccccn2)ncc1C(=O)O

>  <class>
F

$$$$
>  <compound>
COc1cccc(NC(=O)Cn2cccc2-c2nnc(-c3ccccc3)o2)c1

>  <class>
T

$$$$
>  <compound>
CCOC(=O)N1CCC(c2nnc(Cc3ccc(OC)cc3)s2)CC1

>  <class>
F

$$$$

Exercise: Reported RP-LC retention time at or above 900 s? O=C(NCCc1c[nH]c2ccc(Cl)cc12)c1cc(-c2ccccn2)nc2ccccc12
Key: T

Exercise: Reported RP-LC retention time at or above 900 s? CCC1CN(C(=O)N2CCC(C(=O)NCCCN3CCOCC3)CC2)c2ccccc2O1 (stereo unspecified)
Key: F
